- Test system: CN0375-F725-PDC KRAS spheroid viability;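 further: spheroids exposed to agents for 7 days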
- Experiment: Anticancer human tumor CN0375-F725-PDC patient-derived colon carcinoma cell line growth inhibition [KRAS2]; active means viability on the fitted dose curve at most 10% of control; inactive means the rest
- Cond: second compound 3.16 µM; first compound 0.1 µM; spheroids with HUVEC and MSC
Outcomes: 1.0 for active, 0.0 for inactive

| Compound | Assigned Category |
| --- | --- |
| CN(C)C/C=C/C(=O)Nc1cc2c(Nc3ccc(F)c(Cl)c3)ncnc2cc1O[C@H]1CCOC1 + C=CC(=O)N1CCN(c2nc(OCC3CCCN3C)nc3c2CCN(c2cccc4cccc(C)c24)C3)CC1CC#N | 1.0 |
| CC(C)NCC(C(=O)N1CCN(c2ncnc3c2C(C)CC3O)CC1)c1ccc(Cl)cc1 (stereo not given) + CC1OCC2(CCN(c3cnc(Sc4ccnc(N)c4Cl)c(N)n3)CC2)C1N | 0.0 |
| COC(=O)c1ccc2c(C(=Nc3ccc(N(C)C(=O)CN4CCN(C)CC4)cc3)c3ccccc3)c(O)[nH]c2c1 + CC1OCC2(CCN(c3cnc(Sc4ccnc(N)c4Cl)c(N)n3)CC2)C1N | 0.0 |
| CCNC(=O)CC1N=C(c2ccc(Cl)cc2)c2cc(OC)ccc2-n2c(C)nnc21 (stereo not given) + CC1OCC2(CCN(c3cnc(Sc4ccnc(N)c4Cl)c(N)n3)CC2)C1N | 0.0 |
| CC(C)n1nc(-c2ccc3oc(N)nc3c2)c2c(N)ncnc21 + CC1OCC2(CCN(c3cnc(Sc4ccnc(N)c4Cl)c(N)n3)CC2)C1N | 0.0 |
